protocol.notes: folding stability dG unfold (combined trypsin and chymotrypsin); higher = more stable
Classification field: enter Fulfilled for folding stability dG unfold values not below 1 kcal/mol, Not fulfilled for values below it.

[[record]]
monomer_sequence = "SAGSKEEKAKEIAKKLAEELKKKFPDLKIVEVKVVKIEYNKENKEIKITIYVYNKNGKLIKKIEITLPSAGG [r19_53_TrROS_Hall]"
qualitative_label = "Fulfilled"

[[record]]
monomer_sequence = "SAGGMEPIEIPAKVKITHNGKEQEYPLENVTIWPMPDGMYMIYNPDKGEMFFINPKNGRLMRIEIDDSAGGS [r16_721_TrROS]"
qualitative_label = "Fulfilled"

[[record]]
monomer_sequence = "SAGGSAGGSAGGSGMTTTLLEQREFTLPNGEPVRVTVARFPGGEIVTETEDGVVTTDPLSAGGSAGGSAGGS [r4_111_JUSTAS]"
qualitative_label = "Not fulfilled"

[[record]]
monomer_sequence = "MVLDAGISRKDFINNKPIKVETALKKLAEILGGPNFKPKVKPSKKDYLVAVIELPDGRKLLLKDDKDIKISS [r1_168_TrMRF]"
qualitative_label = "Not fulfilled"

[[record]]
monomer_sequence = "SAGGSAGGSAMLVIRVVTEDGEEREIEIPEGEELTLEEILAALRTPDGREVPIERVEIFPASAGGSAGGSAG [r3_465_TrROS_Hall]"
qualitative_label = "Fulfilled"

[[record]]
monomer_sequence = "SAGGSAGGSAWRLYIGGQKIEIPPGGPVKLERHKNGWVKIEIKMPGGRKKEFTIPIPPGATSAGGSAGGSAG [r3_207_TrROS]"
qualitative_label = "Fulfilled"

[[record]]
monomer_sequence = "SAGMSLKLEVPIDGHMIEVTVHPSPPRATAKYPEFDATAEATISEPGLINLTITDPKTGKPYPLDVTLPSAG [r14_656_JUSTAS]"
qualitative_label = "Not fulfilled"

[[record]]
monomer_sequence = "WRIRVEIEMYNPDGDPMEMEIQIPVDKLQELRQEGEPFTKEELVDEIVEIIRDMMPEHGMPIEIKIVEIVPS [r1_174_TrROS]"
qualitative_label = "Fulfilled"

[[record]]
monomer_sequence = "SAGGSAGGSVIEKDPDDTILLKLEIPEEGKESLVTLPKDEVEKVIEEKGVKKLTALKLGEPKPSAGGSAGGS [r12_294_JUSTAS]"
qualitative_label = "Not fulfilled"

[[record]]
monomer_sequence = "SFRIMASYDPDYGTITVYVQFQDPDNGEPIPAEEIAKEIAEQFPGAKIDDIEPNPDGWFKIEIKVPPGAFSA [r9_87_TrROS]"
qualitative_label = "Fulfilled"

[[record]]
monomer_sequence = "SAGGSAGGAEKIKKKLEELGFEIVKIEKESENKIKIYVKPDNPEKIKEIKEKISSSEVDEIGNESAGGSAGG [r6_83_TrMRF]"
qualitative_label = "Not fulfilled"

[[record]]
monomer_sequence = "SMYRIRVKIKIKNPKTGKVIELPELEGMSLEEVLEIAKELKEKFPGAEVEVEIVEVEPLPPLTEEQLKKLSA [r9_421_TrROS_Hall]"
qualitative_label = "Fulfilled"

[[record]]
monomer_sequence = "SAGGGYRAVAVFERPDGRREVVFIEFESEEEALREAEEIARRFGLRLKELRVYPVEPLPPVRPELAGSAGGS [r8_364_TrMRF]"
qualitative_label = "Fulfilled"

[[record]]
monomer_sequence = "SMVIEINEDGTVKVYLPEELKGLSAEEIEELIKKLFGPNVKIEKIEIFEPPPKLTEEEKEELKKLPKEEKSA [r9_1011_TrROS_Hall]"
qualitative_label = "Fulfilled"

